Data provenance is ChEMBL document CHEMBL3885861.

# Organism: Rattus norvegicus
# protocol-details: Open TG-GATES - Regimen: Daily Repeat
# Type: toxicity, organism-based, Sprague-Dawley
# Set-up: regimen Daily Repeat, gender Male, age 6 weeks
# condition-notes: in vivo, po, 0 mg/kg, […], tissue Plasma, route gavage, dose level Control, time 14 day
Label Y when gamma-GTP < 1 IU/L; otherwise N.

Q: Does the reported gamma-GTP of the following compound sit strictly below 1 IU/L? CC(C)C(=O)Nc1ccc([N+](=O)[O-])c(C(F)(F)F)c1 [FLUTAMIDE]
Ans: Y

Q: Strictly below 1 IU/L in gamma-GTP? CCSCC[C@H](N)C(=O)O
Ans: Y

Q: Hello, is gamma-GTP of the following compound strictly smaller than 1 IU/L? Oc1ncnc2[nH]ncc12
Ans: N

Q: hey, is gamma-GTP for CC(C)(S)[C@@H](N)C(=O)O lower than 1 IU/L or not?
Ans: Y

Q: Regarding C[C@]12CCC(=O)C=C1CC[C@@H]1[C@@H]2CC[C@@]2(C)[C@H]1CC[C@]2(C)O , kindly confirm whether its gamma-GTP is beneath 1 IU/L.
Ans: N

Q: In plain terms, does CC(=N)S [THIOACETAMIDE] come in under 1 IU/L for gamma-GTP?
Ans: N

Q: Decide: gamma-GTP of CC(=O)Oc1cc(C(C)C)c(OCCN(C)C)cc1C strictly below 1 IU/L?
Ans: N

Q: Please check: gamma-GTP for CCc1oc2ccccc2c1C(=O)c1cc(I)c(O)c(I)c1 , strictly under 1 IU/L or not?
Ans: N

Q: Item C#C[C@]1(O)CC[C@H]2[C@@H]3CCc4cc(O)ccc4[C@H]3CC[C@@]21C : gamma-GTP beneath 1 IU/L, strictly?
Ans: Y

Q: In the record for CCC(C)(C)C(=O)O[C@H]1C[C@@H](C)C=C2C=C[C@H](C)[C@H](CC[C@@H]3C[C@@H](O)CC(=O)O3)[C@H]21 , is gamma-GTP less than 1 IU/L?
Ans: N
